Below are GI50 values recorded for HL-60(TB).

# example entries with known answers
[
  {
    "MOLECULE": "COc1cccc(OC)c1N(Cc1ccoc1)C(=O)C(=O)NC1=CC(=O)c2ccccc2C1=O",
    "TARGET_SYSTEM": "HL-60(TB)",
    "GI50": "282 nM"
  },
  {
    "MOLECULE": "C=CCN(C(=O)C(=O)NC1=CC(=O)c2ccccc2C1=O)c1ccsc1C(=O)OC",
    "TARGET_SYSTEM": "HL-60(TB)",
    "GI50": "1080 nM"
  },
  {
    "MOLECULE": "C=CCN(C(=O)C(=O)NC1=CC(=O)c2ccccc2C1=O)c1c(OC)cccc1OC",
    "TARGET_SYSTEM": "HL-60(TB)",
    "GI50": "249 nM"
  }
]

Then this molecule:
Req: Fill blank: measured GI50 of the molecule C[C@]12C3=C(C(=O)c4ccccc4C3=O)N3C(=O)C(=O)N4C[C@H]5C[C@@]16CC6[C@@]5(C)[C@@]432 (stereo partly shown) is ____.
Resp: 267 nM
